Source: PubChem BioAssay

Procedure Details: growth suppression of yeast trafficking mutant, preliminary HTS, modulators of trafficking downstream of Golgi apparatus project, 1536-format plate, OD 615 nm (AID 637)
Assay Setup: yeast transport mutant growth, absorbance 615 nm, 18 h; stronger effect = higher value
Activity calls are given as the source filed them. Rule as the data show it: active = inhibition above about 30%; inactive = the rest.
Readout Label: inhibition

Guide cases for inhibition, answers given:
# Compound, Readout Label, Obs Value
measured = [
    ("COC(=O)c1cc(NC(=O)C2CC=CCC2C(=O)O)cc(C(=O)OC)c1 (stereo unspecified)", "inhibition", "-1.94% (inactive)"),
    ("CC(=O)Nc1ccc(S(=O)(=O)Nc2nc3n(n2)C(c2ccccc2)CC(=O)N3)cc1 (stereo unspecified)", "inhibition", "-0.32% (inactive)"),
    ("CC(Oc1ccc(Cl)cc1Cl)c1nc(-c2ccc(NC(=O)c3cccnc3)cc2)no1 (stereo unspecified)", "inhibition", "22.2% (inactive)"),
    ("COC(=O)CNC(=O)c1c(C)cc(=O)oc1C", "inhibition", "-8.55% (inactive)"),
    ("CN(C(=O)c1ccccn1)c1nnc(-c2ccncc2)s1", "inhibition", "-5% (inactive)"),
]

Shifting focus to the compound that follows.
[in] Which inhibition value belongs to COc1ccc(OCC(O)Cn2c(Br)nc3c2c(=O)[nH]c(=O)n3C)cc1 (stereo unspecified) ?
[out] 10.7% (inactive)

* * *

Procedure Details: 384-well plate pilot, post-Golgi transport modulator project, inhibition of yeast transport mutant growth (AID 636)
Assay Setup: absorbance 615 nm, about 18 h, stronger effect = higher value
Readout Label: inhibition (%)
Express it in %; write the number only.

Guide cases for inhibition, answers given:
# Molecule, inhibition [%]
records = [
    ("CCOC(=O)CN1C(=O)C2(OCCCO2)c2ccccc21", -7.66),
    ("N=c1c(C(=O)NCc2ccc(F)cc2)cc2c(=O)n3ccccc3nc2n1CCCN1CCOCC1", 0.78),
    ("OCc1nc2ccccc2n1CC(O)Cn1ccc2ccccc21 (stereo not given)", -1.97),
]

[in] Which inhibition value belongs to Cc1cc(C)c(-c2cc(C(=O)Nc3c(C)n(C)n(-c4ccccc4)c3=O)[nH]n2)c(O)c1 ?
[out] -1.97

[in] Which inhibition value belongs to Cc1cccc(N2C(=O)CC(N3CCN(Cc4ccc(Cl)cc4)CC3)C2=O)c1 (stereo not given) ?
[out] -3.87

* * *

Procedure Details: reducers of endogenous Her2 protein level, primary screen, SKBR3 breast tumor cells, AlphaScreen, ATP viability (AID 461);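 also: percent of carrier control wells set as 100% viability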
Assay Setup: 18-24 h, measured here: SKBR3 viability, ATP luminescence, at 10 µM
Readout Label: viability (%)
Express it in %; write the number only.

Guide cases for viability, answers given:
# Molecule, Uom, Obs Value
records = [
    ("C/C(=N\\O)C(=O)NCCCNCCCN(C)C", "%", 104),
    ("Clc1cccc(Nc2c3c(nc4ncnn24)CCC3)c1", "%", 94.5),
    ("COc1cccc(C2C(C(=O)c3cc4ccccc4o3)=C(O)C(=O)N2CCN(C)C)c1OC (stereo not given)", "%", 104),
    ("CCCOc1cccc(-c2nnc(N)s2)c1", "%", 102),
    ("Cc1ccc(NC(=O)C2CCCN2C(=O)Oc2ccccc2)cc1 (stereo not given)", "%", 90.5),
]

[in] Which viability value belongs to CSc1ccc(-c2nc(CSCC(=O)N3CCOCC3)c(C)o2)cc1 ?
[out] 102

[in] Which viability value belongs to COCc1cc(C)c2c(N)c(C#N)sc2n1 ?
[out] 88

[in] Which viability value belongs to COCCn1c(C23CC4CC(CC(C4)C2)C3)n[nH]c1=S ?
[out] 90

* * *

Procedure Details: reversal of MRP1-mediated doxorubicin resistance, pilot screen, H69AR cells, doxorubicin co-treatment (AID 601)
Assay Setup: H69AR cells + 2 uM doxorubicin, CellTiter-Glo, 72 h; measured here: viability with 2 uM doxorubicin; at 10 µM; stronger effect = lower value
Criterion: viability strictly less than 90%. Met: label 1. Not met: label 0.

# Compound, Label Class
records = [
    ("O=C1C(c2ccncc2)=C(O)c2ccccc21", "label 1"),
    ("O=C(CCC(=O)N(c1cccc(F)c1)C(C(=O)NC1CCCC1)c1ccncc1)Nc1cccnc1 (stereo unspecified)", "label 0"),
    ("N#Cc1cc2sc3nnc(-c4ccncc4)n3c2cc1C#N", "label 1"),
    ("Nc1c(Sc2ccccc2)c(=O)[nH]c(=O)n1Cc1ccccc1", "label 0"),
]

As a next step, examine the compound that follows.
[in] Is it true that viability reported for Cc1ccc(C(=O)CC2(O)C(=O)N(CN3CCOCC3)c3ccccc32)cc1 (stereo unspecified) is less than 90%?
[out] label 0

* * *

Procedure Details: SK-BR-3 cell growth inhibitors, pilot screen, 24 h, human (AID 572);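 also: compound exposure lasted between 18 and 24 h rather than exactly 24 h; 100% = carrier-treated control wells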
Assay Setup: SK-BR-3 viability, CellTiter-Glo luminescence, at 10 µM, stronger effect = lower value
Readout Label: viability (%)
Express it in %; write the number only.

# Compound, Uom, viability
rows = [
    ("O=C(CSc1nc2ncccc2[nH]1)Nc1ccc2c(c1)OCCO2", "%", 108),
    ("CCN(CC)S(=O)(=O)c1ccc(NC2c3ccccc3C(=O)N2CCN2CCOCC2)cc1 (configuration not stated)", "%", 101),
    ("CCOc1ccc(C(=O)Nc2ccc(N3CCN(C)CC3)cc2)cc1Br", "%", 114),
]

[in] Which viability value belongs to COC(=O)c1cc(Br)c(=O)n(CCC2=CCCCC2)c1 ?
[out] 81.5

[in] Which viability value belongs to CCOc1ccc(C(=O)N(CN2CCCC2=O)c2ccc(C)cc2)cc1 ?
[out] 125

* * *

# viability values compiled below
Procedure Details: HUVEC growth inhibition – cell-based, human, primary screen (AID 575);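 also: 100% = median of untreated cell wells with 0.1% DMSO on each plate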
Assay Setup: HUVEC proliferation, CellTiter-Glo luminescence, 72 h; at 10 µM; stronger effect = lower value
Express it in %; write the number only.

[in] Which viability value belongs to COc1ccc2[nH]c(=O)c(CNC3CCCCC3)cc2c1 ?
[out] 115

[in] Which viability value belongs to CCOc1ccc(C2C(C#N)=C(N)Oc3cc(C)n(CCN(C)C)c(=O)c32)cc1OCC (stereo unspecified) ?
[out] 90.3

[in] Which viability value belongs to CCOc1ccc2nc(NC(=O)CSc3nnnn3C3CCCCC3)sc2c1 ?
[out] 59.7

* * *

Procedure Details: reversal of MRP1-mediated doxorubicin resistance, pilot screen, H69AR cells, doxorubicin co-treatment (AID 601)
Assay Setup: H69AR cells, CellTiter-Glo, 72 h; compound alone cytotoxicity; at 10 µM
Readout Label: viability (%)
Express it in %; write the number only.

# Compound, Readout Label, Obs Value
records = [
    ("O=C(C(c1ccccc1)c1ccccc1)N1CCN(Cc2ccccn2)CC1", "viability", 93.4),
    ("Cc1cccc(N2CCN(C(=O)CCn3c(=S)[nH]c4cc5c(cc4c3=O)OCO5)CC2C)c1 (stereo not drawn)", "viability", 50.8),
    ("COC(=O)c1c(N)nc(C)n1-c1ccc(OC)cc1", "viability", 96.1),
    ("CCCCOC(=O)n1c(SCC(=O)N(CC)CC)nc2ccccc21", "viability", 91.4),
    ("COCCN1C(=O)C(=O)/C(=C(/O)c2ccc(OC(C)C)cc2)C1c1cccnc1 (stereo not drawn)", "viability", 92.6),
]

[in] Which viability value belongs to O=C1NC(c2ccccc2)(C(F)(F)F)SC2=CCCCCN12 (stereo not drawn) ?
[out] 94.3

[in] Which viability value belongs to COC(=O)[C@H](C)NC(=O)NCc1ccc(F)cc1 ?
[out] 95.3

[in] Which viability value belongs to CCN(c1cccc(C)c1)S(=O)(=O)c1ccc2[nH]c(=O)c(=O)[nH]c2c1 ?
[out] 92.1

[in] Which viability value belongs to O=C(c1ccccc1Cl)N1CCc2ccccc2C1 ?
[out] 83

[in] Which viability value belongs to Cc1ccc(-n2c(Cn3cnc4ccccc43)nnc2SCC(=O)O)cc1 ?
[out] 97.7

[in] Which viability value belongs to COc1ccc(C2c3sc(=O)[nH]c3SC3C4CCC(C4)C23)cc1 (stereo not drawn) ?
[out] 89.7

[in] Which viability value belongs to Cc1ccc(S(=O)(=O)C2(C(=O)Nc3cccnc3)CC2)cc1 ?
[out] 98.4

[in] Which viability value belongs to Cc1nn(-c2ccccc2)c2sc(C(=O)N3CCOCC3)cc12 ?
[out] 87.3

[in] Which viability value belongs to CCN1C(=O)CC(C(=O)Nc2ccc(F)cc2)SC1=Nc1ccc2c(c1)OCO2 (stereo not drawn) ?
[out] 86.4

[in] Which viability value belongs to O=C(Cn1cccc1)N1CCN(C(c2ccccc2)c2ccccc2)CC1 ?
[out] 91.4

[in] Which viability value belongs to O=C(NCCO)c1cccc2c1C(=O)c1ccccc1-2 ?
[out] 101
